# ASSAY TARGET: T1, human transferrin receptor (Hu TrfR), recombinant extracellular domain (human, UniProt P02786 89-760)
# T1 construct: extracellular domain; Recombinant Fc fusion (R&D Systems) or His-tagged (Sino Biologicals); also called human TfR
# T1 sequence (P02786 89-760): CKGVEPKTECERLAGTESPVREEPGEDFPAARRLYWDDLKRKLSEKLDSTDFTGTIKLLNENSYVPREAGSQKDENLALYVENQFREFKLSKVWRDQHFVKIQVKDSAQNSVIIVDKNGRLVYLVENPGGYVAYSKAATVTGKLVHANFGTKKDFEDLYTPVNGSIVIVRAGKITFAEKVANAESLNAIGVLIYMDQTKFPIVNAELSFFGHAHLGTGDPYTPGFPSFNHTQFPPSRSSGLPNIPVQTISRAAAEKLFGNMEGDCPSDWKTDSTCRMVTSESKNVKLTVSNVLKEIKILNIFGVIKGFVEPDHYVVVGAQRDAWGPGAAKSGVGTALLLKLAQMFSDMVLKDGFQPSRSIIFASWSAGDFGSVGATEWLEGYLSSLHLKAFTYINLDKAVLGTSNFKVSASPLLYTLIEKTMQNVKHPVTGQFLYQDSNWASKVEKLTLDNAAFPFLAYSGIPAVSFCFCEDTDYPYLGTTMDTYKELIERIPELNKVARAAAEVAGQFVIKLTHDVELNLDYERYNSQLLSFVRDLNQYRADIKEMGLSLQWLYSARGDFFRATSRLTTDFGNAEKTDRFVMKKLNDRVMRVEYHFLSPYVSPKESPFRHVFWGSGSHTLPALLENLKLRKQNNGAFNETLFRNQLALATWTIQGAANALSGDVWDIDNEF
# METHOD DESCRIPTION: phage selection and phage ELISA on coated receptor ECD
MEASUREMENT KIND: binding result

binder="GGVCKQNWLPGWGTCRRDSDCPGACICRGNGYCGSGSD (designed binder) [CYC25]" experimental_result=binds
binder="GGVCEYFRWHLDSWGECRRDSDCPGACICRGNGYCGSGSD (designed binder) [CYC40]" experimental_result=binds
binder="GGVCKALWYMGWGTCRRDSDCPGACICRGNGYCGSGSD (designed binder) [CYC24]" experimental_result=binds
binder="GGVCLVSQWHIESWGQCRRDSDCPGACICRGNGYCGSGSD (designed binder) [CYC41]" experimental_result=binds
binder="GGVCLYEAWHLPSWGQCRRDSDCPGACICRGNGYCGSGSD (designed binder) [CYC44]" experimental_result=binds
binder="GGVCQEERWHMHSWGPCRRDSDCPGACICRGNGYCGSGSD (designed binder) [CYC42]" experimental_result=binds

Numbers sourced from patent US20250340604A1.
